Protocol details: Instantaneous solubility of the compounds of formula (I) in aqueous media
Assay type: physicochemical
Protocol conditions: instantaneous solubility, room temperature, water + 10% ethanol
Where a name gives a salt, the structure may show the parent alone.
Measurement kind: Solubility, dissolution medium Water + 10% ethanol (μg per ml)

Cc1c(C(=O)NN2CCCCC2)nn(-c2ccc(Cl)cc2Cl)c1-c1ccc(Cl)cc1 [Hydrochloride (solvated)] ... 10
Cc1c(C(=O)NN2CCCCC2)nn(-c2ccc(Cl)cc2Cl)c1-c1ccc(Cl)cc1 [Solvated compound A] ... 0.9
Cc1c(C(=O)NN2CCCCC2)nn(-c2ccc(Cl)cc2Cl)c1-c1ccc(Cl)cc1 [Paratoluenesulfonate] ... 7.3
Cc1c(C(=O)NN2CCCCC2)nn(-c2ccc(Cl)cc2Cl)c1-c1ccc(Cl)cc1 [Hydrogensulfate] ... 38

I = Cc1c(C(=O)NN2CCCCC2)nn(-c2ccc(Cl)cc2Cl)c1-c1ccc(Cl)cc1 [Methanesulfonate (solvated)]
II = Cc1c(C(=O)NN2CCCCC2)nn(-c2ccc(Cl)cc2Cl)c1-c1ccc(Cl)cc1 [Phosphate]
Given I and II , report the one with the higher recorded Solubility, dissolution medium Water + 10% ethanol. State your choice using its label.
I
(I: 48 μg per ml, II: 7.5 μg per ml)

---

Protocol details: Solubility of compound A in solvents and after dilution of the solutions in water
Assay type: physicochemical
Protocol conditions: organic solvent or mixture; solvent Polyethylene glycol 400
Measurement kind: solubility (mg/mL)
Output spec: scalar in mg/mL, unitless text.

Would you kindly share the measured solubility for Cc1c(C(=O)NN2CCCCC2)nn(-c2ccc(Cl)cc2Cl)c1-c1ccc(Cl)cc1 [compound A] ?
50

---

Protocol details: Solubility of compound A in solvents and after dilution of the solutions in water
Assay type: physicochemical
Protocol conditions: polyethylene glycol 400 solution, dilution in water 30%
Measurement kind: Amount of compound A dissolved, measured (µg/mL)
Output spec: scalar in µg/mL, unitless text.

Would you kindly share the measured Amount of compound A dissolved, measured for Cc1c(C(=O)NN2CCCCC2)nn(-c2ccc(Cl)cc2Cl)c1-c1ccc(Cl)cc1 ?
3

---

Protocol details: Solubility of compound A in solvents and after dilution of the solutions in water
Type: physicochemical
Protocol conditions: organic solvent or mixture; solvent Ethanol
Measurement kind: solubility (mg/mL)
Output spec: scalar in mg/mL, unitless text.

Would you kindly share the measured solubility for Cc1c(C(=O)NN2CCCCC2)nn(-c2ccc(Cl)cc2Cl)c1-c1ccc(Cl)cc1 ?
35
